- measurement.target: hERG (KCNH2) (Homo sapiens, UniProt Q12809)
- Sequence (Q12809 whole entry): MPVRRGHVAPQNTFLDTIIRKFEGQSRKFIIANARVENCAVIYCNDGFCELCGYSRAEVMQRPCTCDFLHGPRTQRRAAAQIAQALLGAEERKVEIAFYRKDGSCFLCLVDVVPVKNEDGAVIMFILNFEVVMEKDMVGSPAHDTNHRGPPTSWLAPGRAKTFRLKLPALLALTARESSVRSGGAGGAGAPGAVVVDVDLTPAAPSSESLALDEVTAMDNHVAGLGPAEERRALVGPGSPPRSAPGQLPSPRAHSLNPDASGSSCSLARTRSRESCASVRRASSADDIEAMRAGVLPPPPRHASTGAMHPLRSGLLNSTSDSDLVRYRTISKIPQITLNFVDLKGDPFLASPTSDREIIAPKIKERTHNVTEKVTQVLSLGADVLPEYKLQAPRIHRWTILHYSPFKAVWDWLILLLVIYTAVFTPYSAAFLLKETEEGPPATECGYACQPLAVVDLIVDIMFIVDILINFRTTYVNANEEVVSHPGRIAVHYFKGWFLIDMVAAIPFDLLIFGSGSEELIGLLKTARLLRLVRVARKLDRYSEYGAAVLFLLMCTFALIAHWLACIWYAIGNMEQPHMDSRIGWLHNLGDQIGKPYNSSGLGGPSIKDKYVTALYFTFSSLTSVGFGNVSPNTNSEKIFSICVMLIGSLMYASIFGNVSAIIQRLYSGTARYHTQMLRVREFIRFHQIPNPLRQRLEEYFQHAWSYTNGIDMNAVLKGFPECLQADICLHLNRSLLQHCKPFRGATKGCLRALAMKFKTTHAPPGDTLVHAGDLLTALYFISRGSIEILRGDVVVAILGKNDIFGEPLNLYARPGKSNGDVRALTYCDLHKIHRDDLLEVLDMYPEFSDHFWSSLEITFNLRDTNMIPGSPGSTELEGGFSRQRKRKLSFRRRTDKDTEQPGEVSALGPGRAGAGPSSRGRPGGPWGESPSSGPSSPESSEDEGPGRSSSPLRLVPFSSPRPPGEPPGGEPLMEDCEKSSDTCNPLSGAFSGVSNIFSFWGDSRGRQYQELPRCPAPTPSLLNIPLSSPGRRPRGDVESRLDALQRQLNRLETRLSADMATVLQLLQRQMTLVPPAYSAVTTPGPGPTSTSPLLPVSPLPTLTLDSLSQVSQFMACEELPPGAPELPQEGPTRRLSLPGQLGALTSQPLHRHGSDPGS
- measurement.protocol: Inhibition of human ERG at 10 uM by radioligand binding assay
quantity.name: inhibition at 10 µM

Which inhibition at 10 µM reading was recorded for the compound Cc1cccc(N2CNC(=O)C23CCN(C[C@H](C)NC(=O)c2ccc(Br)cc2)CC3)c1 ?
> 50%

----------
- measurement.protocol: in vivo
- condition.label: black6 (printed 'balck6'), mouse, lung, ip, 10 mg/kg
quantity.name: AUC at 6 h
Could you give the number and then its unit, please?

Which AUC at 6 h reading was recorded for the compound O=C(NCCN1CCC2(CC1)C(=O)NCN2c1cccc(F)c1)c1ccc(F)c(F)c1 ?
4.61 µM·h

----------
- measurement.protocol: in vivo
- condition.label: black6 (printed 'balck6'), mouse, brain, ip, 10 mg/kg
quantity.name: AUC at 6 h (µM·h)
Give bare numbers, in µM·h.

Which AUC at 6 h reading was recorded for the compound O=C(NCCN1CCC2(CC1)C(=O)NCN2c1cccc(F)c1)c1ccc(F)c(F)c1 ?
0.08
